# TARGET OR TEST SYSTEM: hCB2R (Homo sapiens, UniProt P34972)
# Sequence (P34972 whole entry): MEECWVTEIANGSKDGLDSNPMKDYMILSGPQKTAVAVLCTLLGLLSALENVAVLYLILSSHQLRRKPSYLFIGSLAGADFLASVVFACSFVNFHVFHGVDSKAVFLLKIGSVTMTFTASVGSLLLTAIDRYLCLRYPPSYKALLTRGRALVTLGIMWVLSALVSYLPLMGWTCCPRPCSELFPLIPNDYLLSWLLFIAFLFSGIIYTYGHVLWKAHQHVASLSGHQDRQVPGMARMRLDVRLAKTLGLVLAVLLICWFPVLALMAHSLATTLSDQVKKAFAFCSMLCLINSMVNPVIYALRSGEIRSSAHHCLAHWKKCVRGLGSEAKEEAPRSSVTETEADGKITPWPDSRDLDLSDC
# TEST: biochemical
# Type: biochemical
# Parameters: expressed in transfected cells; host or cells: Flp-In-293 (Invitrogen #R750-07), pcDNA5/FRT
READOUT TYPE: pEC50 ± SEM GTPγS hCB2R

Below are 6 molecules. Give each one its pEC50 ± SEM GTPγS hCB2R.
1. Cc1ccc2c(c1)Cc1c(C(=O)NN3CCCCC3)nn(-c3ccc(Cl)cc3Cl)c1-2 [Gp-1a]
2. CCCCCCC(C)(C)c1cc(OC)c(C2=C[C@H]3CC[C@]2(CO)C3(C)C)c(OC)c1 [HU910]
3. CN1CCCC[C@@H]1Cn1cc(C(=O)c2cc([N+](=O)[O-])ccc2I)c2ccccc21 [(R)-AM1241]
4. CCCC(C)(C)c1ccc2c(c1)OC(C)(C)[C@@H]1CC=C(C)C[C@@H]21 [JWH133]
5. COc1ccc(C(=O)c2c(C)n(CCN3CCOCC3)c3cc(I)ccc23)cc1 [AM630]
6. CN1CCCCC1Cn1cc(C(=O)c2cc([N+](=O)[O-])ccc2I)c2ccccc21 (racemic) [(rac)-AM1241]

Reply |
7.09 ± 0.07
7.27 ± 0.12
7.40 ± 0.50
6.96 ± 0.35
6.75 ± 0.20
6.89 ± 0.66

----------
# STATED CONDITIONS: PAMPA
Consider the following compounds; for each one, report its Pct acceptor.
One number for each entry, in %.

Field: example entries. Status: answers known.
[[record]]
compound = "CN1CCCC[C@H]1Cn1cc(C(=O)c2cc([N+](=O)[O-])ccc2I)c2ccccc21 [(S)-AM1241]"
readout_type = "Pct acceptor"
value_measured = 2.2

[[record]]
compound = "CCCCCCC(C)(C)c1cc(OC)c([C@@H]2C=C(CO)[C@@H]3C[C@H]2C3(C)C)c(OC)c1"
readout_type = "Pct acceptor"
value_measured = 2.8

[[record]]
compound = "CN1CCCC[C@@H]1Cn1cc(C(=O)c2cc([N+](=O)[O-])ccc2I)c2ccccc21 [(R)-AM1241]"
readout_type = "Pct acceptor"
value_measured = 2.1

[[record]]
compound = "Cc1ccc2c(c1)Cc1c(C(=O)NN3CCCCC3)nn(-c3ccc(Cl)cc3Cl)c1-2"
readout_type = "Pct acceptor"
value_measured = 0

[[record]]
compound = "Cc1c(C(=O)NN2CCCCC2)nn(-c2ccc(Cl)cc2Cl)c1-c1ccc(Cl)cc1 [SR141716A]"
readout_type = "Pct acceptor"
value_measured = 0.3


Below are 2 compounds. Give each one its Pct acceptor.
1. CCCC(C)(C)c1ccc2c(c1)OC(C)(C)[C@@H]1CC=C(C)C[C@@H]21
2. CCCCCCC(C)(C)c1cc(OC)c(C2=C[C@H]3CC[C@]2(CO)C3(C)C)c(OC)c1

Reply |
2.3
1

----------
# TARGET OR TEST SYSTEM: hCB1R (Homo sapiens, UniProt P21554)
# Construct: host or cells: CHO
# Sequence (P21554 whole entry): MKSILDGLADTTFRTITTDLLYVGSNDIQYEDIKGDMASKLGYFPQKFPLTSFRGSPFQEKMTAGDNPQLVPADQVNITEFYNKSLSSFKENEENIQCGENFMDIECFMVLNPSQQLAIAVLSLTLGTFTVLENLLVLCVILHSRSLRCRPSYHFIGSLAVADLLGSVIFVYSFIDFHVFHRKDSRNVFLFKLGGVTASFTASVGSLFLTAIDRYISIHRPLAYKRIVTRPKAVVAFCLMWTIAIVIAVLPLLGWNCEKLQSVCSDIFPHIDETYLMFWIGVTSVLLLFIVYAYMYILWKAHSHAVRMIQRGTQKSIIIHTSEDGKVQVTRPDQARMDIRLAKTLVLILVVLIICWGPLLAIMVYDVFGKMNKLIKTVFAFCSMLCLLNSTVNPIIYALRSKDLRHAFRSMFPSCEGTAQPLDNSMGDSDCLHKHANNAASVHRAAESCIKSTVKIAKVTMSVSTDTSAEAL
# TEST: cell-based
# Format: cell-based
READOUT TYPE: pEC50 ± SEM β-AR recruitment hCB1R
Give bare numbers.

Field: example entries. Status: answers known.
[[record]]
molecule = "CN1CCCC[C@@H]1Cn1cc(C(=O)c2cc([N+](=O)[O-])ccc2I)c2ccccc21 [(R)-AM1241]"
target_or_test_system = "hCB1R (Homo sapiens, UniProt P21554)"
value_measured = 5.59

[[record]]
molecule = "CCCCCCC(C)(C)c1cc(OC)c(C2=C[C@H]3CC[C@]2(CO)C3(C)C)c(OC)c1"
target_or_test_system = "hCB1R (Homo sapiens, UniProt P21554)"
value_measured = 5.31


// below: pEC50 ± SEM β-AR recruitment hCB1R requested for another molecule
Ask | Please indicate recorded pEC50 ± SEM β-AR recruitment hCB1R of CCCC(C)(C)c1ccc2c(c1)OC(C)(C)[C@@H]1CC=C(C)C[C@@H]21 measured with hCB1R (Homo sapiens, UniProt P21554).
Reply | 5.37

----------
# TARGET OR TEST SYSTEM: human P-gp (Homo sapiens)
# Sequence (P08183 whole entry): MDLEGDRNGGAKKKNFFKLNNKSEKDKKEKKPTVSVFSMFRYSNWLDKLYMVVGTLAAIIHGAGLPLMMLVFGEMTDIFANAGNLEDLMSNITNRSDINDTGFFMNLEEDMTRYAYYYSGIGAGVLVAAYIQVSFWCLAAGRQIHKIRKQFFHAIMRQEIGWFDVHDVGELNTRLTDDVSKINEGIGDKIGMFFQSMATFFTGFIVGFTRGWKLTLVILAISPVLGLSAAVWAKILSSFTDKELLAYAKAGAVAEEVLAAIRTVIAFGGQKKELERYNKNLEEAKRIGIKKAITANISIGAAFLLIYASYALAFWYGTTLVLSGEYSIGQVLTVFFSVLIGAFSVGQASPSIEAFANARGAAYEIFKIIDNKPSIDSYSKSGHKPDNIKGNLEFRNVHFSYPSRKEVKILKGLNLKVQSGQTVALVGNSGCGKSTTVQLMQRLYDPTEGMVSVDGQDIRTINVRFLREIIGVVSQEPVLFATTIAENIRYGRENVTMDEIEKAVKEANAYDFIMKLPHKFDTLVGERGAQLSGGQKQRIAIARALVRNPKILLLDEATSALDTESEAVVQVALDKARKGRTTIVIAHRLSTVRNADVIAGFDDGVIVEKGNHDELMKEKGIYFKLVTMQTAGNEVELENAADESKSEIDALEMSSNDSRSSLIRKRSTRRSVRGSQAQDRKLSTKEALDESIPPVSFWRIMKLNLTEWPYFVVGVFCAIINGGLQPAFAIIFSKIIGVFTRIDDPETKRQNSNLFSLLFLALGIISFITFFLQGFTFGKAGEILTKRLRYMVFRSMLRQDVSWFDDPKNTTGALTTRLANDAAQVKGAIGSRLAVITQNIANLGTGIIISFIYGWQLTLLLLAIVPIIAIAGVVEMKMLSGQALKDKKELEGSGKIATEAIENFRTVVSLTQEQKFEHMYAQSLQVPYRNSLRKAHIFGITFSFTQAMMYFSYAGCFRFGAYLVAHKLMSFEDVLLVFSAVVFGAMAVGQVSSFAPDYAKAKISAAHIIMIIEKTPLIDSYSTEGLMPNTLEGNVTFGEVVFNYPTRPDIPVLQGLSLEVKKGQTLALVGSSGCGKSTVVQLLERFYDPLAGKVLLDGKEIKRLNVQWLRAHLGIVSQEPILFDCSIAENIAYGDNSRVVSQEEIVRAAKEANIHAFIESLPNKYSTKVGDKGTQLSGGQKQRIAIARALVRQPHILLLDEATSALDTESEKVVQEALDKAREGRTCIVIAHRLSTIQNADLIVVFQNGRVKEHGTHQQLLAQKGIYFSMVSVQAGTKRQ
# STATED CONDITIONS: efflux ratio
READOUT TYPE: P-gp (ER) human
One number for each entry.

Field: example entries. Status: answers known.
[[record]]
molecule = "CCCCCCC(C)(C)c1cc(OC)c(C2=C[C@H]3CC[C@]2(CO)C3(C)C)c(OC)c1"
value_measured = 2.2

[[record]]
molecule = "COc1ccc(C(=O)c2c(C)n(CCN3CCOCC3)c3cc(I)ccc23)cc1"
value_measured = 1.3

[[record]]
molecule = "Cc1ccc2c(c1)Cc1c(C(=O)NN3CCCCC3)nn(-c3ccc(Cl)cc3Cl)c1-2"
value_measured = 1.0


// below: P-gp (ER) human requested for another molecule
Ask | Using known records, supply P-gp (ER) human for CN1CCCC[C@H]1Cn1cc(C(=O)c2cc([N+](=O)[O-])ccc2I)c2ccccc21 [(S)-AM1241]
Reply | 2.7

----------
# TARGET OR TEST SYSTEM: Human recombinant TRPV1 (Homo sapiens, UniProt Q8NER1)
# Construct: expressed in transfected cells; host or cells: HEK293 (TRPV1-HEK-293, gift from John Davis, GlaxoSmithKline)
# Sequence (Q8NER1 whole entry): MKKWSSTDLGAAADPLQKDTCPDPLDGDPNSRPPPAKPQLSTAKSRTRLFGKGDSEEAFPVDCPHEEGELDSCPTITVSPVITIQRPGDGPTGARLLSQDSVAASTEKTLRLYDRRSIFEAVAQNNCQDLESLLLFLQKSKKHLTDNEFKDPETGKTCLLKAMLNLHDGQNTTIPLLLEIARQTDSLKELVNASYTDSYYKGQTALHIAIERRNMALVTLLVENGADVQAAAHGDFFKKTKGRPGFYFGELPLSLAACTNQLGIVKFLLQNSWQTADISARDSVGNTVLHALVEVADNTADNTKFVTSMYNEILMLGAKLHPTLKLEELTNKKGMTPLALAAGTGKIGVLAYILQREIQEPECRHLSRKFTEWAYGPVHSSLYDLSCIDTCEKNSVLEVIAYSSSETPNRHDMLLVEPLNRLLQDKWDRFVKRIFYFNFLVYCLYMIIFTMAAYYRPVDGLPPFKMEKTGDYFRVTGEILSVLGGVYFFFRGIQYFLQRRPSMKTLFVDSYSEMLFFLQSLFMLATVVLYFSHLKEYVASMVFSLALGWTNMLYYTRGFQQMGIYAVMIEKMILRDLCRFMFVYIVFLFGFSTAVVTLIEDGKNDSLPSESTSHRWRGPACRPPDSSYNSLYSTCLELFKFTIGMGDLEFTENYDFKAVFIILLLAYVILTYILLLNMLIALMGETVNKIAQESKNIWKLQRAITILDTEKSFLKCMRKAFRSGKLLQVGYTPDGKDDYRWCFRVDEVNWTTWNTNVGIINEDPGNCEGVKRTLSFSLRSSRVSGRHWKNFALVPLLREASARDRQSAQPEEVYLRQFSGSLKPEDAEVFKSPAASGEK
# TEST: cell-based
# Format: cell-based
# STATED CONDITIONS: read-out: TRPV1 Potency EC50
READOUT TYPE: pEC50
One number for each entry, as −log10 of the molar value.

[[record]]
molecule = "CCCC(C)(C)c1ccc2c(c1)OC(C)(C)[C@@H]1CC=C(C)C[C@@H]21"
value_measured = 5.09

[[record]]
molecule = "Cc1c(C(=O)NN2CCCCC2)nn(-c2ccc(Cl)cc2Cl)c1-c1ccc(Cl)cc1 [SR141716A]"
value_measured = 4.92


Ask | Using known records, supply pEC50 for Cc1c(C(=O)c2cccc3ccccc23)c2cccc3c2n1[C@H](CN1CCOCC1)CO3
Reply | 4.72

----------
# TARGET OR TEST SYSTEM: hCB2R (Homo sapiens, UniProt P34972)
# Parameters: expressed in transfected cells; host or cells: Flp-In-293 (Invitrogen #R750-07), pcDNA5/FRT
# STATED CONDITIONS: hCB2R, relative effectiveness
Consider the following molecules; for each one, report its RE GIRK.
One number for each entry.

Field: example entries. Status: answers known.
[[record]]
molecule = "CN1CCCC[C@@H]1Cn1cc(C(=O)c2cc([N+](=O)[O-])ccc2I)c2ccccc21 [(R)-AM1241]"
readout_type = "RE GIRK"
value_measured = 0.004

[[record]]
molecule = "CN1CCCC[C@H]1Cn1cc(C(=O)c2cc([N+](=O)[O-])ccc2I)c2ccccc21 [(S)-AM1241]"
readout_type = "RE GIRK"
value_measured = 0.01

[[record]]
molecule = "CCCCCCC(C)(C)c1cc(OC)c(C2=C[C@H]3CC[C@]2(CO)C3(C)C)c(OC)c1 [HU910]"
readout_type = "RE GIRK"
value_measured = 0.01


// below: RE GIRK requested for another molecule
Ask | Using known records, supply RE GIRK for CCCCCCC(C)(C)c1cc(OC)c([C@@H]2C=C(CO)[C@@H]3C[C@H]2C3(C)C)c(OC)c1 [HU308]
Reply | 0.03

----------
# STATED CONDITIONS: PAMPA
READOUT TYPE: Pct donor (%)
One number for each entry, in %.

Below are 4 compounds. Give each one its Pct donor.
1. CCCCCCC(C)(C)c1cc(OC)c(C2=C[C@H]3CC[C@]2(CO)C3(C)C)c(OC)c1
2. CN1CCCCC1Cn1cc(C(=O)c2cc([N+](=O)[O-])ccc2I)c2ccccc21 (racemic) [(rac)-AM1241]
3. COc1ccc(C(=O)c2c(C)n(CCN3CCOCC3)c3cc(I)ccc23)cc1
4. Cc1c(C(=O)NN2CCCCC2)nn(-c2ccc(Cl)cc2Cl)c1-c1ccc(Cl)cc1 [SR141716A]

Reply |
42
41.3
35.4
25.2

----------
Consider the following molecules; for each one, report its LogR cAMP.
# TARGET OR TEST SYSTEM: hCB2R (Homo sapiens, UniProt P34972)
# Design: expressed in transfected cells; host or cells: Flp-In-293 (Invitrogen #R750-07), pcDNA5/FRT
# STATED CONDITIONS: hCB2R

Field: example entries. Status: answers known.
[[record]]
molecule = "CCCCCCC(C)(C)c1cc(OC)c(C2=C[C@H]3CC[C@]2(CO)C3(C)C)c(OC)c1"
target_or_test_system = "hCB2R (Homo sapiens, UniProt P34972)"
readout_type = "LogR cAMP"
value_measured = 8.37

[[record]]
molecule = "CCCCC/C=C\\C/C=C\\C/C=C\\C/C=C\\CCCC(=O)OC(CO)CO"
target_or_test_system = "hCB2R (Homo sapiens, UniProt P34972)"
readout_type = "LogR cAMP"
value_measured = 6.99

[[record]]
molecule = "CCCCC/C=C\\C/C=C\\C/C=C\\C/C=C\\CCCC(=O)NCCO [Anandamide, N-arachidonoylethanolamine]"
target_or_test_system = "hCB2R (Homo sapiens, UniProt P34972)"
readout_type = "LogR cAMP"
value_measured = 5.96


// below: LogR cAMP requested for another molecule
Ask | Using known records, supply LogR cAMP for CCCCCCC(C)(C)c1cc(OC)c([C@@H]2C=C(CO)[C@@H]3C[C@H]2C3(C)C)c(OC)c1
Reply | 8.49

Hey, just so you know, these numbers are from paper PMC5216056.
